Molecular target: T1, recombinant His-tagged human PD-1 (Acro Biosystems) (human, UniProt Q15116 25-167)
T1 construct: His-tagged; also called hPD-1
T1 sequence (Q15116 25-167 limits assumed): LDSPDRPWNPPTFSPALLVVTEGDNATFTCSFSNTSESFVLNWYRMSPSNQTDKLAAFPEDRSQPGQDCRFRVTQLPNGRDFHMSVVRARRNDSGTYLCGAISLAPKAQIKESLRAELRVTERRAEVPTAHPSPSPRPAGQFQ
Test: SPR Carterra LSA;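 also: antibodies or fusion proteins amine-coupled on an HC30M chip, soluble His-tagged human or cynomolgus PD-1 titrated over them, non-regenerative kinetics, constants fitted from titration curves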
# maps each entry to its kon
parameter: kon (M⁻¹ s⁻¹)

{"columns": ["binder", "output.unit", "numeric.result"],
 "data": [
  ["OMC.1.B6-hIgG4 (antibody, V domains shown) VH: EVQLLESGGGLVQPGGSLRLSCAASGFTFSSNYMSWVRQAPGKGLEWVSAISSSGGTIFYADSVKGRFTISRDNSKNTLYLQMNSLRAEDTAVYYCAKHKWNAVYYDGMDVWGQGTTVTVSS VL: QSVLTQPPSASGTPGQRVTISCSGSNSNIGRNLVNWYQQLPGTAPKLLIYTIDQRPSGVPDRFSGSKSGTSASLVISGLQSEDEADYYCAAWDGSLNAWVFGGGTKLTVLG", "M⁻¹ s⁻¹", 77000],
  ["OMC476pG10-hIgG4 (antibody, V domains shown) VH: DVQLVESGGGVVRPGGSLRLSCAASGFTFSIYAMSWVRQAPGEGLEWVSHISASGGSTYYADSVKGRFAISRDNSKNTLYLQMNSLRAEDTAVYYCTTNLGSDYWGLGTLVTVSS VL: QSVLTQPPSASGTPGQRVTISCSGSYSDIGTNYVYWYQQLPGTAPKLLIFATDRRPSGVPDRFSGSKSGTSASLAISGLQSEDEADYYCGTWDDSLNVWVFGGGTKLTVLG", "M⁻¹ s⁻¹", 93000],
  ["OMC.1.D6-hIgG4 (antibody, V domains shown) VH: EVQLLESGGGLVQPGGSLRLSCAASGFTFSDYYMSWVRQAPGKGLEWVSAISSSGGTIFYADSVKGRFIISRDNSKNTLYLQMNSLRAEDTAVYYCAKHKWNDVYYDAMDVWGQGTTVTVSS VL: QSVLTQPPSASGTPGQRVTISCSGSNSNIGRNLVNWYQQLPGTAPKLLIYTVDQRPSGVPDRFSGSKSGTSASLAISGLASEDEADYYCAAWDSSLNSWVFGGGTKLTVLG", "M⁻¹ s⁻¹", 41000],
  ["Anti-PD-1 clone J110 hIgG1 (antibody, V domains shown) VH: DVQLQESGPGLVKPSQSLSLTCTVTGHSITSDYAWNWIRQFPGDKLEWMGYISYSGYTTYNPSLKSRVSITRDTSKNQFFLQLNSVTTEDTATYFCARDLDYGPWFAYWGQGTLVTVSA VL: DIQMTQSPASLSASVGETVTLTCRASENIHNYLAWYQQKQGKSPQLLVYNVKTLADGVPSRFSGSGSGTQYSLKINSLQPEDFGSYYCQHFWSSPWTFGGGTKVEIKR", "M⁻¹ s⁻¹", 100000],
  ["OMC.2.C6-hIgG4 (antibody, V domains shown) VH: EVQLLESGGGLVQPGGSLRLSCTASGFTFSSYEMQWVRQAPGKGLEWVLGITSSSSHIFYADSVKGRFTVSRDNSKNTLYLQMNSLRAEDTAVYYCTKDLNSYYGLDVWGQGTTVTVSS VL: QSVMTQPPSASGTPGQRVTISCSGSTSNLGNNYVSWYQHLPGTAPKLLIYGNDQRPSGVPDRFSGSKSGTSASLAISGLQSDDEADYYCSSWDASLNVWVFGGGTKLTVLG", "M⁻¹ s⁻¹", 57000],
  ["A2-hIgG4 (antibody, V domains shown) VH: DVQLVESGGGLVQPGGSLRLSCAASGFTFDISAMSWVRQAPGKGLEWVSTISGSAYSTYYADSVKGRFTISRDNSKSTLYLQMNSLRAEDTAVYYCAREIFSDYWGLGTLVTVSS VL: QSVLTQPPSASGTPGQRVTISCSGSTSNIGRESVYWYQQLPGTAPKLLIYSNVQRPSGAPNRFSGSKSGTSASLAISGLQSEDEADYYCGTWDDSLNGWVFGGGTKLTVLG", "M⁻¹ s⁻¹", 37000],
  ["OMC476pH10-hIgG4 (antibody, V domains shown) VH: DVQLVESGGGVVRPGGSLRLSCAASGFTFSIYAVSWVRQAPGEGLEWVSHISASGGSTYYADSVKGRFAISRDNSKNTLYLQMNSLRAEDTAVYYCTTNLGSDYWGLGTLVTVSS VL: QSVLTQPPSASGTPGQRVTISCSGSYSDIGTNYVYWYQQLPGTAPKLLIFATDRRPSGVPDRFSGSKSGTSASLAISGLQSEDEADYYCGTWDDSLNVWVFGGGTKLTVLG", "M⁻¹ s⁻¹", 100000]
]}

Values were extracted from patent US20240076343A1.
